Biological target: UniProt Q9NPD5
Sequence (Q9NPD5 1-702): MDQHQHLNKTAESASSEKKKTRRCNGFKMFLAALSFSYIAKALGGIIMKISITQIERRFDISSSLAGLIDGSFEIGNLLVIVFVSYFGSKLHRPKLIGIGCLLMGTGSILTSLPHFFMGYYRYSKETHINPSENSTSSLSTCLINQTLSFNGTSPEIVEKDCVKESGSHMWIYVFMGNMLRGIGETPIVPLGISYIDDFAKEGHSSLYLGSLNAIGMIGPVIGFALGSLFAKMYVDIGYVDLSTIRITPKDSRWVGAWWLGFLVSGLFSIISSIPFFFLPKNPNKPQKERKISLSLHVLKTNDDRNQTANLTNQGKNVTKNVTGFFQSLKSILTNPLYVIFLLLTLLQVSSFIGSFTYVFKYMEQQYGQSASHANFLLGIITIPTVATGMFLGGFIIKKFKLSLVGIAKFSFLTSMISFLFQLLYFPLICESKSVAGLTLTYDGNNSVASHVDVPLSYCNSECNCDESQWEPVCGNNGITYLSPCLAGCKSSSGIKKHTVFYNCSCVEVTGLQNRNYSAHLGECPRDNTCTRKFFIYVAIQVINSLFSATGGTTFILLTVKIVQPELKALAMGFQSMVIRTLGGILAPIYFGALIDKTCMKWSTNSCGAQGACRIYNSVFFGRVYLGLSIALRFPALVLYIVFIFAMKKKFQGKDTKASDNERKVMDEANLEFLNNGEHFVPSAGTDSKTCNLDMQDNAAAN
Test: In vitro OATP1B3 inhibition, transfected HEK293 cells, rosuvastatin probe
Assign pIC50 to each entry below.
One number for each entry, as −log10 of the molar value.

{"columns": ["compound", "pIC50"],
 "data": [
  ["COc1cc(Nc2ncc(F)c(Nc3ccc4c(n3)N(COP(=O)(O)O)C(=O)C(C)(C)O4)n2)cc(OC)c1OC", 5.13]
]}

Answer for every listed entry: what is its pIC50? The entries follow.
1. CO[C@H]1/C=C/O[C@@]2(C)Oc3c(C)c(O)c4c(O)c(c(/C=N/N5CCN(C)CC5)c(O)c4c3C2=O)NC(=O)/C(C)=C\C=C\[C@H](C)[C@H](O)[C@@H](C)[C@@H](O)[C@@H](C)[C@H](OC(C)=O)[C@@H]1C
2. CCCN(CCC)S(=O)(=O)c1ccc(C(=O)O)cc1
3. C[C@H]1CN(C2COC2)CCN1c1ccc(Nc2cc(-c3ccnc(N4CCn5c(cc6c5CC(C)(C)C6)C4=O)c3CO)cn(C)c2=O)nc1
4. CNC(=O)c1ccc(-c2cnc3ncc(Cc4ccc5ncccc5c4)n3n2)cc1F

Response:
[6.14, 3.47, 5.96, 4.84]

Request: Recorded pIC50 for CC(O)c1cc(C(=O)N[C@@H](C)Cn2ccc(-c3ccc(C#N)c(Cl)c3)n2)[nH]n1 (stereo partly drawn) [Darolutamide] , please?
Response: 4.69

----------
Molecular target: BCRP (Homo sapiens)
Sequence (Q9UNQ0 1-655): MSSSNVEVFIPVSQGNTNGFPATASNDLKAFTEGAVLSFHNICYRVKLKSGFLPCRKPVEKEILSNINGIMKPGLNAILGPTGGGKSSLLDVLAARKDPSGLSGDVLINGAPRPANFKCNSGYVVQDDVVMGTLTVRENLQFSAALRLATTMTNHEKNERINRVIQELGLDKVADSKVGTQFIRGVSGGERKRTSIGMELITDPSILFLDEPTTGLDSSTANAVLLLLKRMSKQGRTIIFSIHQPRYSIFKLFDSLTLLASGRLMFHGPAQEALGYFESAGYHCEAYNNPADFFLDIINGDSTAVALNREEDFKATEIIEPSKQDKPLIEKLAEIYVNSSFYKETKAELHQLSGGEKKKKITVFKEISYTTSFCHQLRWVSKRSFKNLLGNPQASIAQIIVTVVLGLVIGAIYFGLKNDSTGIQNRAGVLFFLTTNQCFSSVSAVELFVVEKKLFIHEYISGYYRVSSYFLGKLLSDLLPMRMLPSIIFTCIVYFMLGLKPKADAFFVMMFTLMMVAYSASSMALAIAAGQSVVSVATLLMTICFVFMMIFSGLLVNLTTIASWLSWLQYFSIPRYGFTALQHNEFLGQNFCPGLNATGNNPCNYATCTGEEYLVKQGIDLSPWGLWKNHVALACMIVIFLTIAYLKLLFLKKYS
Assay: In vitro BCRP inhibition, HEK293-BCRP membrane vesicles, rosuvastatin probe
Type: biochemical
measurement-name: IC50 (µM)
One number for each entry, in µM.

The following compounds have reported results that may help.
{"columns": ["compound", "measurement-units", "IC50"],
 "data": [
  ["CCC(C)n1ncn(-c2ccc(N3CCN(c4ccc(OCC5COC(Cn6cncn6)(c6ccc(Cl)cc6Cl)O5)cc4)CC3)cc2)c1=O (stereo not shown)", "µM", 3.2],
  ["O=c1ccc2ccc(OCCCCN3CCN(c4cccc5sccc45)CC3)cc2[nH]1", "µM", 100],
  ["Cc1ccc(C)c(OCCCC(C)(C)C(=O)O)c1", "µM", 295]
]}

Next item in the queue.
Request: Quick check: IC50 on BCRP (Homo sapiens), item CCCc1nc2c(C)cc(-c3nc4ccccc4n3C)cc2n1Cc1ccc(-c2ccccc2C(=O)O)cc1 ?
Response: 0.61

----------
Exercise: state measured log10(IC50) for each of the compounds provided.
Biological target: OATP1B1 (Homo sapiens, UniProt Q9Y6L6)
Sequence (Q9Y6L6 whole entry): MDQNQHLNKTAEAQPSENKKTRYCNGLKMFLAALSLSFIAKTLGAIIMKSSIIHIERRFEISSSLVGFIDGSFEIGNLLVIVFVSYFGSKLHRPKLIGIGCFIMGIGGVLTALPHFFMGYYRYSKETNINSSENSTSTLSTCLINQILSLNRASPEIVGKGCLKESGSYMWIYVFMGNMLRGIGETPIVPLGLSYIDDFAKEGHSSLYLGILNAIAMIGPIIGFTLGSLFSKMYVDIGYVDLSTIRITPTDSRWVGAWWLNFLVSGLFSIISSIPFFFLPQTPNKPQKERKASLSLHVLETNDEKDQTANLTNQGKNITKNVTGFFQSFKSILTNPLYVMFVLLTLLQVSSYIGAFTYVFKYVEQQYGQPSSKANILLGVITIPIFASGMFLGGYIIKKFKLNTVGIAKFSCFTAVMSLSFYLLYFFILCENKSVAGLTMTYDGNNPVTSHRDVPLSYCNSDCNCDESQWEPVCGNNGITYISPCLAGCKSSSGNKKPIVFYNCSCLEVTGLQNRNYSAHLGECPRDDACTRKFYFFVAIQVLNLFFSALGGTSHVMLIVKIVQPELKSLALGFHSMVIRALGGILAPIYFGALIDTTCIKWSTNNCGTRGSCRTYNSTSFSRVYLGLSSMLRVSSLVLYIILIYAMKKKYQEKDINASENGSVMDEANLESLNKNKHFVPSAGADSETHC
Assay: In vitro OATP1B1 inhibition, transfected HEK293 cells, rosuvastatin probe
Kindly note that the scale is log10 and the underlying IC50 is in nM.

{"columns": ["compound", "test-system", "log10(IC50)"],
 "data": [
  ["COc1cc(Nc2ncc(F)c(Nc3ccc4c(n3)N(COP(=O)(O)O)C(=O)C(C)(C)O4)n2)cc(OC)c1OC", "OATP1B1 (Homo sapiens, UniProt Q9Y6L6)", 2.95],
  ["O=c1ccc2ccc(OCCCCN3CCN(c4cccc5sccc45)CC3)cc2[nH]1", "OATP1B1 (Homo sapiens, UniProt Q9Y6L6)", 4.12],
  ["CC(O)C(C)n1ncn(-c2ccc(N3CCN(c4ccc(OCC5COC(Cn6cncn6)(c6ccc(Cl)cc6Cl)O5)cc4)CC3)cc2)c1=O (stereo not drawn) [Hydroxy‐itraconazole]", "OATP1B1 (Homo sapiens, UniProt Q9Y6L6)", 3.15]
]}

Batch: log10(IC50) for all items listed.
1. CNC(=O)c1ccc(-c2cnc3ncc(Cc4ccc5ncccc5c4)n3n2)cc1F
2. O=C(O)C[C@H]1CC[C@H](c2ccc(-c3ccc(Nc4ccc(C(F)(F)F)nc4)cn3)cc2)CC1
3. CO[C@H]1/C=C/O[C@@]2(C)Oc3c(C)c(O)c4c(O)c(c(/C=N/N5CCN(C)CC5)c(O)c4c3C2=O)NC(=O)/C(C)=C\C=C\[C@H](C)[C@H](O)[C@@H](C)[C@@H](O)[C@@H](C)[C@H](OC(C)=O)[C@@H]1C

Response:
3.52
3.17
2.46

----------
Biological target: OATP1B3 (Homo sapiens, UniProt Q9NPD5)
Test: In vitro OATP1B3 inhibition, transfected HEK293 cells, rosuvastatin probe
measurement-name: pIC50
Give bare numbers, as −log10 of the molar value.

Give one value of pIC50 per listed molecule.
1. CC[C@H]1[C@@H](O)[C@@H]2[C@H](CC[C@]3(C)[C@@H]([C@H](C)CCC(=O)O)CC[C@@H]23)[C@@]2(C)CC[C@@H](O)C[C@@H]12
2. CC[C@H](Nc1ncnc2[nH]cnc12)c1nc2cccc(F)c2c(=O)n1-c1ccccc1
3. CC1=NN(c2ccc(C)c(C)c2)C(=O)/C1=N\Nc1cccc(-c2cccc(C(=O)O)c2)c1O

Response:
1: 5.67; 2: 5.15; 3: 5.52

Request: Item Cc1ccc(C)c(OCCCC(C)(C)C(=O)O)c1 has what recorded pIC50?
Response: 5.00

----------
Test: Caco-2 permeability
Type: in vitro ADME
Details: human
measurement-name: Papp (×10⁻⁶ cm/s)
Give bare numbers, in ×10⁻⁶ cm/s.

Request: Item under review: CC(C)c1nc(N(C)S(C)(=O)=O)nc(-c2ccc(F)cc2)c1/C=C/[C@@H](O)C[C@@H](O)CC(=O)O . Reported Papp?
Response: 1.2

----------
Target: OATP1B3 (Homo sapiens, UniProt Q9NPD5)
Sequence (Q9NPD5 1-702): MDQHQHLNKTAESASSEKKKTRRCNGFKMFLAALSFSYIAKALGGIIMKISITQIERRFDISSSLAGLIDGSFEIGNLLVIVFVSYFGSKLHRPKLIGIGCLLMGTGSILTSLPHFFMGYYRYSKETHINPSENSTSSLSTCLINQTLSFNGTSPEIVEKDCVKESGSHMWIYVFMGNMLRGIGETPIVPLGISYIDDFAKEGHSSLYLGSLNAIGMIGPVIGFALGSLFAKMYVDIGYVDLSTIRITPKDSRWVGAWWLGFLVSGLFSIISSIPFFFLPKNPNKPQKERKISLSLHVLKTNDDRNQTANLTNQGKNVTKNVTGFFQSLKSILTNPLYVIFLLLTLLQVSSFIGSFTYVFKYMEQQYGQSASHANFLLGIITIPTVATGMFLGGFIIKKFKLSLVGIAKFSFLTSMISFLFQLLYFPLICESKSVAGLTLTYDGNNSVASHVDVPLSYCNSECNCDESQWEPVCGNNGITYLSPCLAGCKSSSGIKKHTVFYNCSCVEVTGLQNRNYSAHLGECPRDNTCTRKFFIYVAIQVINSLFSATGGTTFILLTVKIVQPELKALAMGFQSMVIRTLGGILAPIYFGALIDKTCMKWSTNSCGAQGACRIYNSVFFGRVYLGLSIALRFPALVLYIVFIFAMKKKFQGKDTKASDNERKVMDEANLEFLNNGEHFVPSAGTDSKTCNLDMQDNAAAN
Experiment: In vitro OATP1B3 inhibition, transfected HEK293 cells, rosuvastatin probe
Type: cell-based
Details: human, HEK293 cells transfected with OATP1B3, pH 7.4, probe rosuvastatin 0.3 µM
measurement-name: IC50 at 1 min

Request: Request the reported IC50 at 1 min associated with COc1ccnc(C[S+]([O-])c2nc3ccc(OC(F)F)cc3[nH]2)c1OC (stereo not shown)
Response: > 500 µM
